Source: PubChem BioAssay (NCI)

# assay_remarks: NCI Yeast Anticancer Drug Screen. Data for the mlh1 rad18 strain (AID 175)
# assay_context: S. cerevisiae mlh1 rad18 strain growth inhibition; at 50.0 µM; active compounds read high
# Procedure: Growth inhibition of yeast strains with defined genetic alterations is measured as a screen for potential anti-cancer activity. Selected strains with alterations in DNA damage repair or cell cycle control were exposed to compounds and growth inhibition was measured relative to vehicle treated controls. The strain used in this assay is mlh1 rad18
About 79,000 compounds went through this panel and 15% of them were active in at least one assay; those are over-represented in the sample as a whole.
Is growth inhibition at least 10%? Then True. If not, False.

Problem: // inclusive: growth inhibition at least 10%? input: CC1(C)OCC2OC(n3cnc4c(N)nc(Cl)nc43)C(OS(C)(=O)=O)C2O1 (stereo unspecified)
Solution: True

Problem: // inclusive: growth inhibition at least 10%? input: COc1ccc(-c2cc(=O)c3cccnc3[nH]2)cc1
Solution: True

Problem: // inclusive: growth inhibition at least 10%? input: CN(C)[C@@H]1C(=O)C(C(=O)NCN2CCN(C(=N)N=C(N)N)CC2)=C(O)[C@@]2(O)C(=O)C3=C(O)c4c(O)cccc4[C@@](C)(O)[C@H]3C[C@@H]12
Solution: False

Problem: // inclusive: growth inhibition at least 10%? input: O=[N+]([O-])c1ccc(-c2nnn(Cc3ccco3)c2N2CCCCC2)cc1
Solution: True

Problem: // inclusive: growth inhibition at least 10%? input: Cc1ccc(N=C2OC(=O)c3ccccc32)cc1
Solution: True

Problem: // inclusive: growth inhibition at least 10%? input: O=C(OCC1OC=C(OC(=O)c2ccccc2)C1OC(=O)c1ccccc1)c1ccccc1 (stereo unspecified)
Solution: True

Problem: // inclusive: growth inhibition at least 10%? input: CC(O)C(O)C(O)C(=O)C=O (stereo unspecified)
Solution: True

Problem: // inclusive: growth inhibition at least 10%? input: NC(=O)N/N=C(\Cc1nc2ccc(Cl)cc2[nH]c1=O)C(=O)Nc1ccc(Cl)cc1Cl
Solution: True

Problem: // inclusive: growth inhibition at least 10%? input: C=CCCCCOCOCCOC
Solution: False

Problem: // inclusive: growth inhibition at least 10%? input: CCOC(=O)C(C)(C)Oc1ccc2c(C)c(-c3ccc(Cl)cc3)c(=O)oc2c1
Solution: False

Problem: // inclusive: growth inhibition at least 10%? input: CN1N=Nc2ccccc2C1(O)c1ccccc1 (stereo unspecified)
Solution: False

Problem: // inclusive: growth inhibition at least 10%? input: O=C(ON=C1c2ccccc2C(Br)C(Br)c2ccccc21)c1cc([N+](=O)[O-])cc([N+](=O)[O-])c1 (stereo unspecified)
Solution: True

Problem: // inclusive: growth inhibition at least 10%? input: Cc1cc2ccccc2n1C
Solution: True

Problem: // inclusive: growth inhibition at least 10%? input: Cc1cccc(C)c1NC(=S)/N=C/C1=C(O)c2ccccc2C1=O
Solution: True

Problem: // inclusive: growth inhibition at least 10%? input: O=C(NC1C2CC3CC(C2)CC1C3)c1cc(/C=C/c2ccccc2)[nH]c(=S)n1 (stereo unspecified)
Solution: True

Problem: // inclusive: growth inhibition at least 10%? input: [N-]=[N+]=NC(=O)c1cccc2c1Cc1ccccc1-2
Solution: False

Problem: // inclusive: growth inhibition at least 10%? input: O=C(O)CSc1nc2cc(Cl)c(Cl)cc2[nH]1
Solution: False

Problem: // inclusive: growth inhibition at least 10%? input: CC12CCC(C(=O)n3c1nc1ccccc13)C(C)(C)O2 (stereo unspecified)
Solution: False

Problem: // inclusive: growth inhibition at least 10%? input: [N-]=[N+]=CC(=O)CCN1C(=O)c2ccccc2C1=O
Solution: False

Problem: // inclusive: growth inhibition at least 10%? input: Cc1cccc(CNc2ccc(S(=O)(=O)c3ccc(NCc4cccc(C)n4)cc3)cc2)n1
Solution: True

Problem: // inclusive: growth inhibition at least 10%? input: CCN(CC(O)COc1ccc2c(c1)[n+]([O-])nc(N)[n+]2[O-])C(C)=O (stereo unspecified)
Solution: True

Problem: // inclusive: growth inhibition at least 10%? input: Cc1cccc(C)c1NC(=O)Nc1ccc(C(=O)O)cc1
Solution: True

Problem: // inclusive: growth inhibition at least 10%? input: COc1cc(N(CCC#N)CCC#N)ccc1/C(N=Nc1ccccc1)=N/NC(=O)c1cc(Br)ccc1O
Solution: True

Problem: // inclusive: growth inhibition at least 10%? input: O=C(N=Nc1c(O)[nH]c2c(Cl)cc(Cl)cc12)C(=O)Nc1cccc(C(F)(F)F)c1
Solution: False

Problem: // inclusive: growth inhibition at least 10%? input: O=C1c2ccccc2C(=O)N1OCc1csc(-c2ccccc2)n1
Solution: True

Problem: // inclusive: growth inhibition at least 10%? input: CC(C)(C)NO
Solution: False

Problem: // inclusive: growth inhibition at least 10%? input: Nc1ccc(S(=O)(=O)n2cccc2)cc1
Solution: False

Problem: // inclusive: growth inhibition at least 10%? input: CN(C(=O)c1cccs1)C(=S)N1CCN(c2ccccn2)CC1
Solution: False

Problem: // inclusive: growth inhibition at least 10%? input: CC(C)[C@@H]1NC(=O)[C@@H]2N=C(O[C@H]2C)[C@H](C(C)C)NC(=O)C2N=C1O[C@H]2C
Solution: False

Problem: // inclusive: growth inhibition at least 10%? input: COC1CCC(/C(C#N)=C/C2CCC(OC)C(OC)C2)CC1 (stereo unspecified)
Solution: True

Problem: // inclusive: growth inhibition at least 10%? input: CCCCOC(=O)C(=O)C(CC(C(=O)Cc1ccccc1)c1ccccc1)C(=O)C=C(C)C (stereo unspecified)
Solution: False
